Kindly supply the reported fraction ligated values for the records listed here.
B1: F1*; the commonest letter at each place (parent)
chain: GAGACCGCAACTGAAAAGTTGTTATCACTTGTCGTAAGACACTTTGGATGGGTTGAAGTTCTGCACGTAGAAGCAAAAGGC

Variants of: B1
method: fraction ligated after 30 min (ligated reads / total reads); higher = more ligase activity
conditions: with F1*sub RNA substrate (template-directed ligation), 42 °C
Provide a numeric answer; units are not to be included.

input: So what's the measured fraction ligated for this one? G31C A39T
output: 0.778

input: What does the data say about its fraction ligated? Entry: C42A T43G
output: 0.805

input: Which fraction ligated value belongs to G34C A57C ?
output: 0.817

input: May I ask what fraction ligated has been recorded for T32A T43C ?
output: 0.812

input: Which fraction ligated is listed for G38T G55C ?
output: 0.781

input: For T30G T44G , what is its reported fraction ligated?
output: 0.798

input: Please look up its fraction ligated: A39G G50T
output: 0.789

input: Tell me the measured fraction ligated of T35A T45C , please.
output: 0.788
